System: OVCAR-5 ovarian
Assay: NCI-60 one-dose screen, 48 h
Conditions: 10 µM unless noted
The panel holds about 83,000 compounds, 20% with a hit somewhere; the sample as a whole holds those more often. Active and inactive are the calls of the source. The calls were made as follows: active = growth percent below 10; inactive = the rest.
Respond only with the outcome that fits, drawn from YES = active, NO = inactive

INSERT INTO assay_data (compound, assigned_class) VALUES
  ('COc1cccc(NC(=O)Cn2cc3c(=O)oc4ccccc4c3n2)c1', 'NO');

[in] # lookup: test call for O=C(NCCCN1CCN(CCCNC(=O)C2CCCCC2)CC1)C1CCCCC1
[out] NO

[in] Field entry: Cc1cccc(NC(=O)c2sc3nc4c(cc3c2N)CCC4)c1C
[out] NO

[in] Field entry: Nc1nn2cc(-c3ccc(Cl)s3)nc2c2ccccc12
[out] NO

[in] Field entry: COc1ccc(/C=N/NC(=O)Cn2c(Cc3cccc4ccccc34)nc3ccccc32)cc1
[out] NO

[in] Field entry: CN(C)C/C=C/C(=O)Nc1cc2c(Nc3ccc(F)c(Cl)c3F)ncnc2cc1OCCOC(F)F
[out] NO

[in] Field entry: CCn1cc(C2NC(=O)c3cc(F)ccc3N2)c2cccc(Cl)c21 (stereo unspecified)
[out] NO

[in] Field entry: COc1ccc(NC(=O)CSc2nc3ccc(Cl)cc3c(=O)n2-c2ccccc2C(F)(F)F)c(OC)c1OC
[out] NO

[in] Field entry: O=c1c2cccc3c(Nc4ccc(F)cc4)ccc(c32)c2nc3ccccc3n12
[out] NO

[in] Field entry: COc1ccc(/C=C/C(=O)c2ccc(B(O)O)cc2)cc1O
[out] NO

[in] Field entry: COC(=O)c1cc(-c2cccs2)c(C#N)c(N)c1C#N
[out] NO

[in] Field entry: Cc1ccc(S(=O)(=O)NCCCNc2nccc(-c3c(-c4ccccc4)nc4sccn34)n2)cc1
[out] NO

[in] Field entry: Nc1c(C(=O)Nc2c(Cl)cccc2Cl)sc2nc3c(cc12)CCCCC3
[out] NO

[in] Field entry: COc1cc(-c2cc(/C=C3\CCCCC3=O)[nH]n2)cc(OC)c1OC
[out] NO

Data credit: PubChem BioAssay (NCI)
